- Target Or System: Human TASK-1 channels (Homo sapiens (Human))
- Sequence (O14649 whole entry): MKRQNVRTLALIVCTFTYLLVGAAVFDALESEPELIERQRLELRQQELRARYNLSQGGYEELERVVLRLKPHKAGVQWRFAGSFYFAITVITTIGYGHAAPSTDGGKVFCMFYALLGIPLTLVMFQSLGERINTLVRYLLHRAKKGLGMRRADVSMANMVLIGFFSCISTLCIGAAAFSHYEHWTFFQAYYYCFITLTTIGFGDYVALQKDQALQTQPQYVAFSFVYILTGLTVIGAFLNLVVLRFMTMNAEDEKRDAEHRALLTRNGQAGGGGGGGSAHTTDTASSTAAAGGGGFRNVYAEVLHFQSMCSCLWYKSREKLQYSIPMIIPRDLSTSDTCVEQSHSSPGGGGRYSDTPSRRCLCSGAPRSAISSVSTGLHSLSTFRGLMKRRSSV
- Test: Activity on the TASK-1 channel in Xenopus oocytes (two-microelectrode voltage clamp)
- Conditions Used: human TASK-1 expressed in Xenopus oocytes, currents during 500 ms pulses to 40 mV, room temperature
- Description: Determination of the activity on the TASK-1 channel in Xenopus oocytes: Human TASK-1 channels were expressed in Xenopus oocytes. For this purpose, oocytes were isolated from Xenopus laevis and defolliculated. […] After two days of TASK-1 protein expression, TASK-1 currents were measured by two-microelectrode voltage clamp. […] Oocytes were clamped to −90 mV and TASK-1 mediated currents were measured during 500 ms voltage pulses to 40 mV. […]
Measured Quantity: IC50 (nM)

The cases that follow already have their IC50 on record.
Compound: CC(C)C(=O)N1CCc2c(c(-c3cccc(C#N)c3)nn2[C@@H]2c3cc(F)cc(F)c3C[C@H]2O)C1 [Example 14c]
Reported Result: 250
//
Compound: CC(=O)N1CCc2c(c(-c3ccc(F)cc3)nn2[C@@H]2c3cc(Cl)ccc3C[C@H]2O)C1 [Example 11s]
Reported Result: 804
//
Compound: COc1cc(-c2nn([C@@H]3c4cc(F)cc(F)c4C[C@H]3O)c3c2CN(C(C)=O)CC3)ccc1F [Example 11y]
Reported Result: 1920
//
Compound: CC(=O)N1CCc2c(c(-c3ccc(F)c(C(F)(F)F)c3)nn2[C@@H]2c3cc(F)cc(F)c3C[C@H]2O)C1 [Example 11f]
Reported Result: 270
//
Compound: COc1ccc(-c2nn([C@@H]3c4cc(F)cc(F)c4C[C@H]3O)c3c2CN(C(C)=O)CC3)cc1 [Example 11ad]
Reported Result: 6890

a = CC(=O)N1CCc2c(c(-c3ccc(Cl)cc3)nn2[C@@H]2c3cc(F)cc(F)c3C[C@H]2O)C1 [Example 11ab]
b = CC(=O)N1CCc2c(c(-c3ccc(F)c(C(F)(F)F)c3)nn2[C@H]2c3cc(F)cc(F)c3C[C@]2(C)O)C1 (racemic) [Example 11i]
In: Return label of the item with the larger IC50. Candidates: a , b . Choose, then provide that item's label.
Out: a
